FYI, the data here is from PubChem BioAssay AID588689.

- experimentalTarget: Genome polyprotein (Dengue virus type 2 (strain 16681-PDK53))
- testSummary: flavivirus cap methylation enzyme inhibition – biochemical, confirmation dose response, primary screen (AID 588689)
- statedConditions: Dengue-2 NS5 methyltransferase capping enzyme assay, at 25 µM, active compounds read high
Among all 340,000 compounds or so, about 1,000 (0.29%) were called active. Only a sample is shown. Measured potencies and affinities stand elsewhere.
measurementKind: inhibition (%)
Lab book: enter the figure in %, no units written.

Reported inhibition of COc1ccccc1N1CCN(C(=O)c2oc3c(c2C)C(=O)CC(C)(C)C3)CC1 : 4.65

Reported inhibition of O=C(C1CC(c2cccc(Br)c2)=NO1)N1CCc2ccccc2C1 (stereo unspecified) : -3.92

Reported inhibition of CCSc1nc(O)c(C2OC(=O)c3c2ccc(OC)c3OC)c(=O)n1-c1ccccc1 (stereo unspecified) : -0.81

Reported inhibition of COc1ccc(/C=C2\SC(=S)N(NS(=O)(=O)c3ccc(C)cc3)C2=O)c(OC)c1 : 16.5

Reported inhibition of COc1ccc(C=C2NC(=O)NC2=O)cc1O : 5.71

Reported inhibition of Oc1c(Br)cc(Br)cc1/C=N/n1c(-c2ccccc2)n[nH]c1=S : -12.7

Reported inhibition of O=S(=O)(Nc1cccc2ccccc12)c1cccs1 : -1.29

Reported inhibition of CCOC(=O)c1c2c(n(Cc3ccccc3)c1C)C(=O)C(=O)c1ccccc1-2 : 25.5

Reported inhibition of CCN(CC)c1ccc(C(=O)O)cc1 : -2.67

Reported inhibition of CCN=C1S/C(=C\c2ccc(-c3cccc(C(=O)O)c3)o2)C(=O)N1CC : 0.91

Reported inhibition of O=C(O)c1cccc(CN2C(=O)S/C(=C/c3ccccc3[N+](=O)[O-])C2=O)c1 : 28.5

Reported inhibition of CCn1c([N+](=O)[O-])nc2c1c(=O)[nH]c(=O)n2C : -10.1

Reported inhibition of COCCNC(=O)C(=O)c1c(-c2ccccc2)[nH]c2ccccc12 : 1.52

Reported inhibition of O=[N+]([O-])c1ccccc1S(=O)(=O)Nc1ccc(S(=O)(=O)Nc2nccs2)cc1 : 3.56

Reported inhibition of O=C(O)c1cc(-c2ccc(/C=C3\NC(=O)N(c4ccccc4)C3=O)o2)ccc1Cl : 3.09

Reported inhibition of CC(=O)Nc1ccc(S(=O)(=O)N2CCC(N3CCCCCC3)CC2)cc1 : -3.4

Reported inhibition of COc1ccc(C(=O)NC(=S)Nc2cccnc2)cc1[N+](=O)[O-] : 6.37

Reported inhibition of CCOc1ccc(NC(=O)C2=NN(c3ccccc3)C(=O)CC2)cc1S(=O)(=O)N1CCCCC1 : -4.38

Reported inhibition of O=C(OCCN1CCCCC1)c1ccccc1Cl : 7.44

Reported inhibition of CCOC(=O)CCC(NC(=O)CCC(=O)NC(CCC(=O)OCC)C(=O)OCC)C(=O)OCC (stereo unspecified) : -7.26

Reported inhibition of Cc1nc2nc(C)c(NS(=O)(=O)c3ccc(C4CCCCC4)cc3)c(=O)n2[nH]1 : -5.01

Reported inhibition of CCOC(=O)c1c(NC(=O)C(Sc2ccccc2)c2ccccc2)sc(C(N)=O)c1C (stereo unspecified) : 2.74

Reported inhibition of CC(C)(C)c1ccc(C(=O)Nc2c3c(nn2C(C)(C)C)CS(=O)(=O)C3)cc1 : -9.75

Reported inhibition of O=C(Nc1cccc([N+](=O)[O-])c1)N1CCCCCC1 : -0.65

Reported inhibition of COc1ccc(N(CC(=O)N/N=C/c2ccc(-c3ccc([N+](=O)[O-])cc3)o2)S(=O)(=O)c2ccc(C)cc2)cc1Cl : -4.14

Reported inhibition of O=S(=O)(c1ccc(Cl)cc1)N1CCN(CCc2ccncc2)CC1 : -1.66

* * *

Could you please report measured inhibition for the items listed next?
- experimentalTarget: Genome polyprotein (Dengue virus type 2 (strain 16681-PDK53))
- testSummary: flavivirus cap methylation enzyme inhibition – biochemical, confirmation dose response, primary screen (AID 588689)
- statedConditions: Dengue-2 NS5 methyltransferase capping enzyme assay, at 25 µM, active compounds read high
The whole screen tested about 340,000 compounds, of which about 1,000 (0.29%) were called active. A selection follows. Measured potencies and affinities stand elsewhere.
Lab book: enter the figure in %, no units written.

Reported inhibition of COc1cccc(C2C(C(=O)c3cc4ccccc4o3)=C(O)C(=O)N2c2cc(C)on2)c1 (stereo not drawn) : 11.6

Reported inhibition of COc1ccc(NCc2nnc(SCC#N)n2-c2ccccc2OC)cc1 : 4.71

Reported inhibition of COc1ccc(C)cc1NC(=O)CN1CCN(c2ccccn2)CC1 : -3.92

* * *

Could you please report measured inhibition for the items listed next?
- experimentalTarget: Genome polyprotein (Dengue virus type 2 (strain 16681-PDK53)) (UniProt P29991)
- testSummary: flavivirus cap methylation enzyme inhibition – biochemical, confirmation dose response, primary screen (AID 588689)
- statedConditions: Dengue-2 NS5 methyltransferase capping enzyme assay, at 25 µM, active compounds read high
Screen size: about 340,000 compounds; about 1,000 (0.29%) were called active. A selection follows. Entries with a potency or affinity are not part of this list.
Lab book: enter the figure in %, no units written.

Reported inhibition of CCc1ccc([C@@H]2CC=C(C(=O)O)[C@H](c3ccccc3)N2S(=O)(=O)c2ccc(C)cc2)cc1 : 15.1

Reported inhibition of CN(C)S(=O)(=O)c1cccc(NC(=O)CO/N=C(\N)c2ccccc2)c1 : 2.16

Reported inhibition of COc1cccc(Nc2ccccc2C(=O)O)c1 : -2.96

Reported inhibition of O=C1CN(C(=O)N[C@@H](Cc2ccccc2)C(=O)N[C@H](Cc2ccccc2)C(=O)O)c2ccccc2N1 : -2.17

Reported inhibition of Cc1ccc(Sc2ccc(/C=C3/C(=O)NN(c4ccccc4)C3=O)o2)cc1 : -2.65

Reported inhibition of CCN1C(=O)[C@@H]2[C@@H](c3ccc(-c4ccc(OC)cc4)c(OC)c3)N3CCCC[C@@]3(C(=O)OC)[C@@H]2C1=O : 17.5

Reported inhibition of O=C(O)C(Cc1ccc(O)cc1)N1C(=O)c2ccccc2C1=O (centres undefined) : -2.65

Reported inhibition of O=C(CCCc1nc(-c2ccc(Cl)cc2)no1)NCC1CCCO1 (centres undefined) : 1.63

Reported inhibition of CCN1C(=O)N/C(=C/c2ccc(Sc3ccc(C)cc3)o2)C1=O : -2.74

* * *

- experimentalTarget: Genome polyprotein (Dengue virus type 2 (strain 16681-PDK53))
- testSummary: flavivirus cap methylation enzyme inhibition – biochemical, confirmation dose response, primary screen (AID 588689)
- statedConditions: Dengue-2 NS5 methyltransferase capping enzyme assay, at 25 µM, active compounds read high
Among all 340,000 compounds or so, about 1,000 (0.29%) were called active. The list is a sample of the results. Results with a measured potency or affinity are listed apart.
measurementKind: inhibition (%)
Lab book: enter the figure in %, no units written.

Reported inhibition of COC(=O)c1ccnc(SCC(=O)c2ccccc2)c1 : -7.25

Reported inhibition of O=C1C2C3C=CC(C4CC34)C2C(=O)N1Cc1ccco1 (stereo not given) : -2.18

Reported inhibition of Cc1ccc(S(=O)(=O)Nc2ccc3cc([N+](=O)[O-])ccc3c2[N+](=O)[O-])cc1 : -2.33

Reported inhibition of O=C(O)/C(=C\c1ccccc1)c1ccccc1 : -3.95

Reported inhibition of Cc1cc(C)c(S(=O)(=O)/N=C2\C=C(NS(=O)(=O)c3ccccc3)C(=O)c3ccccc32)c(C)c1 : 25.3

* * *

- experimentalTarget: Genome polyprotein (Dengue virus type 2 (strain 16681-PDK53)) (UniProt P29991)
- testSummary: flavivirus cap methylation enzyme inhibition – biochemical, confirmation dose response, primary screen (AID 588689)
- statedConditions: Dengue-2 NS5 methyltransferase capping enzyme assay, at 25 µM, active compounds read high
Screen size: about 340,000 compounds; about 1,000 (0.29%) were called active. A selection follows. Potency and affinity values are given separately.
Could you please report measured inhibition for the items listed next?
Lab book: enter the figure in %, no units written.

Reported inhibition of OCC[C@H]1C[C@H](O)[C@@H](O)[C@]2(OCCc3ccccc32)O1 : -1.2

Reported inhibition of O=C(NNc1cccc(Cl)c1)c1cccnc1Cl : -5.34

Reported inhibition of O=C1c2ccccc2CCC12OC2c1ccc([N+](=O)[O-])cc1 (stereo not given) : -3.43

Reported inhibition of CN1C/C(=N\S(=O)(=O)c2ccccc2)N(C)C1=O : -4.44

Reported inhibition of CCN(CC(=O)Nc1ccccc1C(F)(F)F)C(=O)c1ccc2c(c1)NC(=O)C(C)S2 (stereo not given) : -4.95

Reported inhibition of COC(=O)c1ccc(COc2ccc(/C=N/Nc3cccc(C(=O)O)c3)cc2)cc1 : 8.5

Reported inhibition of Cc1ccc(C2(C(F)(F)F)NC(=O)N3N=C4CCCCCN4C3=C2C#N)cc1 (stereo not given) : 7.4

Reported inhibition of Cc1cc(-c2ccc([N+](=O)[O-])cc2)nc2ccccc12 : 0

Reported inhibition of CCOc1ccc(C(=O)Nc2cccc(NC(=O)c3cccs3)c2)cc1[N+](=O)[O-] : -6.19

Reported inhibition of COc1cc(O)c(NC(C)=O)c2nonc12 : 15

Reported inhibition of CN1C(=O)S/C(=C\c2ccccc2OCc2ccc(C(=O)O)cc2)C1=O : 2.95

Reported inhibition of O=S(=O)(c1ccc2ccccc2c1)N1CCN(S(=O)(=O)c2c(F)cccc2F)CC1 : 1.65

Reported inhibition of COc1cccc(NC(=S)NC2CC3CCCC(C2)N3C2CCCC2)c1 (stereo not given) : -6.24

Reported inhibition of Cc1ccc(S(=O)(=O)NCCC(=O)Nc2nccs2)cc1 : -0.76

Reported inhibition of Cc1ccc(NC2=C/C(=N\S(=O)(=O)c3cccs3)c3ccccc3C2=O)c(C)c1 : 12.8

Reported inhibition of CC1(C)CC(=O)C(C(C2=C(O)CC(C)(C)CC2=O)c2ccc(Cl)c([N+](=O)[O-])c2)C(=O)C1 (stereo not given) : -1.46

Reported inhibition of O=C(CSc1nc(O)c(C(c2ccccc2)c2ccccc2)c(=O)[nH]1)N1CCOCC1 : -5.31

Reported inhibition of O=S(=O)(/N=C(\Nc1ccc(F)cc1)C(F)(F)F)c1ccccc1 : 3.78

Reported inhibition of COc1ccc(N)c2c1C(=O)c1ccccc1C2=O : -1.95

Reported inhibition of Cc1c(NC(=O)c2ccc3c(c2)C(=O)N(Cc2ccco2)C3=O)cccc1C(=O)O : 6.25

Reported inhibition of CSc1nc(N)nc2c1ncn2CC(=O)NCCCc1ccccc1 : -9.58

Reported inhibition of COc1cc(-c2ccc3sc(-c4ccsc4)c(C#CCO)c3c2)cc(OC)c1OC : 3.31

Reported inhibition of O=C1C(=O)N(C/C=C/c2ccccc2)c2ccccc21 : -12.9

Reported inhibition of Cc1ccc(S(=O)(=O)Nc2ccccc2-c2ccccc2)cc1 : -9.37

Reported inhibition of COc1ccc(N(C)C(=O)c2ccc3c(c2)nnn3C)cc1 : -4.51

Reported inhibition of CCC(=O)c1ccc(OCC(O)CN2CCN(S(=O)(=O)N3CCCCC3)CC2)cc1 (stereo not given) : 5.46

Reported inhibition of Cc1ccc(CN2CCN(CC(=O)NC(C)CCc3ccccc3)C2=O)cc1 (stereo not given) : -4.17

Reported inhibition of CCOc1ccc(N2C(=O)C(Cl)=C(Nc3ccccc3O)C2=O)cc1 : 31

Reported inhibition of CCN(C(=O)CCN1C(=O)c2ccccc2S1(=O)=O)c1ccccc1 : -2.22

Reported inhibition of N#Cc1c2ccc([N+](=O)[O-])cc2[n+]([O-])n1-c1ccccc1 : 15.2

Reported inhibition of Cc1ccc(Nc2nnc(SC(C)C(=O)NCC3CCCO3)s2)cc1C (stereo not given) : 4.44

Reported inhibition of COc1ccc(N2C(=O)C(Cl)=C(Nc3ccccc3OC)C2=O)cc1 : 1.45

Reported inhibition of Cc1ccc(S(=O)(=O)/N=C2\C=C(NS(=O)(=O)c3ccccc3)C(=O)c3ccccc32)c(C)c1 : 13.1

Reported inhibition of O=C(CN1CCC(c2nc3ccccc3s2)CC1)N1CCCCC1 : -11.7

Reported inhibition of CCc1c(C(=O)N2CCOCC2)csc1C : -2.41
